B1: HNF4A (parent)
chain: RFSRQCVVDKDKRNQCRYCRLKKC

Variants of: B1
Experiment: protein stability index of a GFP-peptide fusion (GPS, HEK-293T) (PSI 1-6); higher = more stable;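 note: lentivirally expressed fusions sorted by FACS into six bins by GFP to DsRed ratio, PSI derived from sequencing read proportions per bin multiplied by bin number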
Settings: c terminus: a fixed tail appended
REPORTED PROPERTY: protein stability index
Lab note: record the figure alone, no unit after it.

The following variants have reported results that may help.
D9F : 2.13
D9I : 2.12
D11M : 2.65
V7A : 2.4
Q15L : 2.78

Ask: Dear colleague, I am looking for the recorded protein stability index of the following variant: K23G
Reply: 2.15

Ask: Would you kindly repeat that for R20P ?
Reply: 3.15

Ask: Would you kindly repeat that for V8E ?
Reply: 2.19

Ask: Would you kindly repeat that for R4H ?
Reply: 3.57

Ask: Would you kindly repeat that for S3G ?
Reply: 2.34

Ask: Would you kindly repeat that for R1C ?
Reply: 2.95

Ask: Would you kindly repeat that for R13A ?
Reply: 2.11

Ask: Would you kindly repeat that for C24L ?
Reply: 2.39
